measured-on: Fuc(a1-2)Gal(b1-4)GlcNAc(b1-3)Gal(b1-4)GlcNAc(b1-2)Man(a1-3)[Fuc(a1-2)Gal(b1-4)GlcNAc(b1-3)Gal(b1-4)GlcNAc(b1-2)Man(a1-6)]Man(b1-4)GlcNAc(b1-4)GlcNAc
procedure-text: glycan array binding signal (z-score within array); higher = stronger binding
test-settings: glycan notation: IUPAC condensed, linker removed
The sample as a whole holds a higher share of the strongest signals than the screen did.
Each record here notes measured glycan array binding signal (z-score).

>  <binder>
CPA (Cicer arietinum) (protein) MAFSYLNLVLVTLTTLFFLQTTKVKSQKSVSFHITNFTISRPSITLQGTAEFLPNVLLLNDIEHPVFVVGRALYSKPITLWNNKTGKVASFVTSFTFDVQDLKKTVPGHGLVFFLAPSGSEIPFSSDGGNLGVVDGKNAFNRFVGVEFDNFVNSWDPKYSHVGINVNSLISTKTVKWNRVSGELVKVSIVYDSVSTTLTVIVTYKNGQISILSQLVDLKAVLPDTVNIGFSASTTLVSPRQLHNIHSWSFTSTFET

>  <glycan array binding signal (z-score)>
0.012

$$$$
>  <binder>
Mermaid3 (Stilbonema majum) (protein) MGSSHHHHHHSSGLVPRGSHMAASGWLRSPQGTVVKLYRRSLSWSKADEFCKDVDGRLVVDRTADMHLFLIKNVLKEKKSRVWVGLRRTASHSRTWIWSDGTRQNEGDLDANLWLRDEPNDAAGEEECALFMYSPWEKAWGLNDYLCRGGCRNYQFICEKWIR

>  <glycan array binding signal (z-score)>
0.368

$$$$
>  <binder>
SBD-G4S3-Fc (protein) MASIPSSASVQLDSYNYDGSTFSGKIYVKNIAYSKKVTVVYADGSDNWNNNGNIIAASFSGPISGSNYEYWTFSASVKGIKEFYIKYEVSGKTYYDNNNSANYQVSTGGGGSGGGGSGGGGSEFVPRDCGCKPCICTVPEVSSVFIFPPKPKDVLTITLTPKVTCVVVDISKDDPEVQFSWFVDDVEVHTAQTQPREEQFNSTFRSVSELPIMHQDWLNGKEFKCRVNSAAFPAPIEKTISKTKGRPKAPQVYTIPPPKEQMAKDKVSLTCMITDFFPEDITVEWQWNGQPAENYKNTQPIMDTDGSYFVYSKLNVQKSNWEAGNTFTCSVLHEGLHNHHTEKSLSHSPGAA

>  <glycan array binding signal (z-score)>
1.23

$$$$
